tested on: cross-linking of glycated bovine serum albumin (AGE-BSA) to the rat tail tendon collagen; assay: Inhibition of cross-linking of glycated bovine serum albumin (AGE-BSA) to rat tail tendon collagen coated 96-well plate (ELISA); assay type: biochemical; settings: 4 h, pH 7.4
pIC50: −log10 of the molar value. Counter-ions that a name gives are not always drawn.
measuredParameter: pIC50

CC(=NNC1=NCCCN1)C(C)=NNC1=NCCCN1 [dihydrobromide]    5.39
OCCN1CCCN=C1NN=CC(=NNC1=NCCCN1CCO)c1ccco1 [dihydrate]    4.70
CC(C=NNC1=NCCCN1)=NNC1=NCCCN1    3.08
CC(C=NNC(=N)NCC(C)(C)CN(C)C)=NNC(=N)NCC(C)(C)CN(C)C    3.36
CC(C=NNC(=N)NCCN1CCOCC1)=NNC(=N)NCCN1CCOCC1    2.66
CC(C=NNC1=NCCCN1CCO)=NNC1=NCCCN1CCO    3.77

1: CC(C=NNC(=N)NCCCN(C)C)=NNC(=N)NCCCN(C)C
2: C(=NNC1=NCCN1)c1ccccc1C=NNC1=NCCN1 [monohydrate]
3: CC(CC(C)=NNC1=NCCN1)=NNC1=NCCN1
4: CC(C=NNC1=NCCN1)=NNC1=NCCN1 [dihydrobromide]
5: CCc1nnc(NN=CC(C)=NNc2nnc(CC)n2N)n1N [dihydrochloride]
Enquiry: Task for the reader: rank each entry by its pIC50, from the minimum upward. Lab note: record answer as labels in requested order.
Return: 4, 2, 1, 5, 3
(4: 2.69, 2: 3.37, 1: 3.66, 5: 3.92, 3: 4.40)

Value source: patent US5698563A
